- System: Candida albicans
- CONDITION_SET: 32 ug/mL
- Description: Antifungal activity against Candida albicans ATCC 90028 (CO-ADD:FG_001); MIC in YNB media using NBS plates, by OD630
Measured potencies and affinities stand elsewhere.
Listing of recorded Inhibition by entry.
Give just the numeric value; % need not be written.

Please list Inhibition recorded for the compound `Cl.Cl.Cn1c(CNc2ccccc2)cc2cc(OCCCC3CCN(Cc4ccccc4)CC3)ccc21`
1.7

// Input: `O=C(COc1ccc2ccccc2c1)N/N=C/c1c[nH]c2ccccc12` . Output its Inhibition only.
0.9

Input COc1cc(C2c3c(nc4c(c3N)CCC4)Oc3ccc4ccccc4c32)ccc1O (centres undefined) , output reported Inhibition.
-1.69

Please look at this compound and report its Inhibition: `C#CCN(C)Cc1cc2cc(OCCCC3CCN(Cc4ccc(C#N)cc4)CC3)ccc2n1C`
4.18

----------
- System: Cryptococcus neoformans
- CONDITION_SET: Concentration 32 ug.mL-1; ASSAY_TEST Inhibition of Fungal Growth; detection method Resazurin; Absorption (OD600-OD570); plate type 384well; NBS; CORNING #3640
- Description: Antifungal activity against Cryptococcus neoformans H99 ATCC 208821 (CO-ADD:FG_002); MIC in YNB media using NBS plates, by Resazurin OD(600-570)
Entries with a potency or affinity are not part of this list.
VALUE_TYPE: Inhibition (%)
Just the number in %, nothing appended.

COMPOUND	Inhibition [%]
C#CCN1CCc2nc3nc(N(C)C)c(C#N)cc3c(N)c2C1	-99.98
COc1ccc(-c2cc(-c3cc4c(OC)ccc(OC)c4nc3Cl)cc(=O)[nH]2)cc1	-87.69
COC(=O)C(=Cc1ccc([N+](=O)[O-])cc1)NC(=O)c1ccccc1	-0.7
CC(=O)NCCc1ccccc1	-3.47

Indicate the recorded Inhibition value for this compound: `Cc1ccc(/C=N/NC(=O)c2c[nH]c3ccccc23)cc1`
-0.49

Determine its reported Inhibition: `CC(C)(C)OC(=O)Nc1ncccc1Br`
-55.01

Write down Inhibition measured for item `CNC(=O)c1cc2cc(OC)ccc2[nH]1`
-6.03

Please indicate Inhibition recorded for `N#Cc1c(N)nc(NCCCC2CCN(Cc3ccccc3)CC2)c(C#N)c1-c1ccccc1`
-34.35

----------
- System: Cryptococcus neoformans
- CONDITION_SET: Concentration 32 ug.mL-1; ASSAY_TEST Inhibition of Fungal Growth; detection method Resazurin; Absorption (OD600-OD570); plate type 384well; NBS; CORNING #3640
Entries with a potency or affinity are not part of this list.
VALUE_TYPE: Inhibition (%)
All answers are understood in %, so give the number only.

COMPOUND	VALUE_TYPE	MEASUREMENT_UNIT	OBSERVED_VALUE
C#CCN(C)c1nc(NC2CCN(Cc3ccccc3)CC2)c(C#N)c(-c2ccccc2)c1C#N	Inhibition	%	-29.11

Give the measured Inhibition for `N#Cc1c(Cl)nc(Sc2ccccc2)c(C#N)c1-c1ccccc1`
-38.87

Give Inhibition for the following compound: `O=Cc1c(-c2ccc(Br)cc2)nc2ccccn12`
-4.41

Return value of Inhibition for input CCOC(=O)C1=C(C)OC(N)=C(C#N)C1c1ccc(F)cc1 (stereo not given) , no commentary.
-57.32

Provide one value: measured Inhibition of `O=C1SC(SCc2ccccc2)=NC1=Cc1ccc2c(c1)OCO2`
-6.24

----------
- System: Cryptococcus neoformans
- CONDITION_SET: Concentration 32 ug.mL-1; ASSAY_TEST Inhibition of Fungal Growth; detection method Resazurin; Absorption (OD600-OD570); plate type 384well; NBS; CORNING #3640
Measured potencies and affinities stand elsewhere.
VALUE_TYPE: Inhibition (%)
Only the number, expressed in %, is required.

Example entries and their recorded answers appear below.
MOLECULE	Inhibition (%)
C#CCN(C)c1nc(N(C)CC#C)c(C#N)cc1C#N	-56.65
CC1Cc2ccccc2N1/N=C/c1ccccc1 (stereo unspecified)	-3.88
Cc1nn(-c2ccccc2)c2ncn3nc(-c4ccccc4)nc3c12	-1.31
O=C(N/N=C/Cc1ccccc1)c1cc2ccccc2[nH]1	-3.25
COc1ccc2c(c1)cc(/C=C/[N+](=O)[O-])n2C	4.17
CC1(C)OS(=O)(=O)C2=C1NC(N)=C(C#N)C2c1ccccc1 (stereo unspecified)	-2.35
C#CCNc1nc(NCCC2CCN(Cc3ccccc3)CC2)c(C#N)cc1C#N	-89.93
CNCc1cc2ccccc2n1C.Cl	-5.12

Continue with the molecule presented below.
Indicate the recorded Inhibition value for this molecule: `O=C(N/N=C/c1cccc(Cl)c1)c1cc2ccccc2[nH]1`
-2.87

----------
- Tested on: Cryptococcus neoformans
- CONDITION_SET: Concentration 32 ug.mL-1; ASSAY_TEST Inhibition of Fungal Growth; detection method Resazurin; Absorption (OD600-OD570); plate type 384well; NBS; CORNING #3640
Results with a measured potency or affinity are listed apart.
VALUE_TYPE: Inhibition
Answer by giving the amount and then stating its unit.

# annotated cases, reported Inhibition shown
MOLECULE	Inhibition
Cl.ClCCCC1CCNCC1	-2.91%
NNC(=O)c1c[nH]c2ccc(OCc3ccccc3)cc12	0.02%
O=C1NC(=O)C(=Cc2ccccc2)N1	-1.42%
N#Cc1c(-c2ccccc2)c2c(ccc3ccccc32)oc1=O	-9.44%
Cc1ccc2nc(Cl)c(/C=N/C(C)(C)C)cc2c1	-0.47%
C#CCNC.O=C(O)C(=O)O	-8.52%
Cn1ccnc1C1C(C#N)=C(N)Oc2c1ccc1cccnc21 (centres undefined)	-53.28%
CCOC(=O)/C(C#N)=C\c1ccc([N+](=O)[O-])cc1	-3.2%

Please find the next molecule below.
Give me measured Inhibition, please, for this molecule: `CCOC(=O)c1cn(C)c2ccccc12`
-4.62%

----------
Item-by-item account of Inhibition
- Tested on: Cryptococcus neoformans
- CONDITION_SET: Concentration 32 ug.mL-1; ASSAY_TEST Inhibition of Fungal Growth; detection method Resazurin; Absorption (OD600-OD570); plate type 384well; NBS; CORNING #3640
Entries with a potency or affinity are not part of this list.
Respond numerically; units are % and should not be typed.

Field: example entries. Status: answers known.
COMPOUND	VALUE_TYPE	MEASUREMENT_UNIT	OBSERVED_VALUE
N#CC1=C(Cl)Oc2ccc3ccccc3c2C1c1ccccc1 (stereo not drawn)	Inhibition	%	-4.84
Cl.Nc1c2c(nc3c1C(c1c(Cl)cccc1Cl)c1ccc4ccccc4c1O3)CCCC2 (stereo not drawn)	Inhibition	%	-3.69

Please find the next compound below.
Write down Inhibition measured for item CCOC(=O)C1=C(C)NC(N)=C(C#N)C1c1ccc(OC)cc1 (stereo not drawn)
-57.77

----------
- System: Candida albicans
- CONDITION_SET: 32 ug/mL
Measured potencies and affinities stand elsewhere.
// values below are reported Inhibition
Number in %, nothing else.

Worked examples, 2 molecules total:
MOLECULE	OBSERVED_VALUE
C#CCN(C)c1nc(OC)c(C#N)c(-c2ccccc2)c1C#N	4.58
O=C(O)c1cc2ccccc2[nH]1	26.2

Report measured Inhibition; entry is `C#CCN(Cc1ccccc1)c1nc(N)c(C#N)c(-c2ccccc2)c1C#N`
2.73

Give a short answer stating reported Inhibition for N#CC1=C(N)Oc2c(ccc3ccccc23)C1c1ccc(Cl)c(Cl)c1 (centres undefined) .
1.53

----------
molecules and their reported Inhibition
- Test system: Klebsiella pneumoniae
- CONDITION_SET: Concentration 32 ug.mL-1; ASSAY_TEST Inhibition of Bacterial Growth; detection method Absorption (OD600); MEDIA CAMHB; plate type 384well; NBS; CORNING #3640; time 18 hr
- Description: Antibacterial activity against Klebsiella pneumoniae MDR ATCC 70063 (CO-ADD:GN_003); MIC in CAMBH media using NBS plates, by OD(600)
Measured potencies and affinities stand elsewhere.
Hi! Could you send only the number? It should be in %, unit omitted.

Take a look at these entries with their results.
MOLECULE	SYSTEM_TESTED	Inhibition / %
CCC(CC)NNC(=O)c1c[nH]c2ccccc12.Cl	Klebsiella pneumoniae	14.64
Cn1c(C(=O)O)cc2ccccc21	Klebsiella pneumoniae	18.05
Cc1ccc(C2c3ccc4ccccc4c3Oc3nc4c(c(N)c32)CCCC4)cc1.Cl (stereo not given)	Klebsiella pneumoniae	-14.84
CC1Cc2c(Cl)nc3nc4c(c(N)c3c2NC1=O)CCCC4 (stereo not given)	Klebsiella pneumoniae	8.15
COc1ccc2cc(C3C4=C(CC(C)(C)CC4=O)Oc4nc5c(c(N)c43)CCCCC5)c(Cl)nc2c1 (stereo not given)	Klebsiella pneumoniae	4.86
Cl.Cl.Cn1c(CNc2ccccc2)cc2cc(OCCCC3CCN(Cc4ccccc4)CC3)ccc21	Klebsiella pneumoniae	5.5
N#C/C(=C\c1ccccc1)C(=O)c1ccccc1	Klebsiella pneumoniae	5.05
N#Cc1cc(C#N)c(NCCCC2CCN(Cc3ccccc3)CC2)nc1N	Klebsiella pneumoniae	10.46

Please give measured Inhibition of the following entry: `O=C1NC(=S)N/C1=C\c1c[nH]c2ccccc12`
4.51

Retrieve Inhibition measured for `C#CC[n+]1ccccc1N.[Br-]` and print it.
-10.26

Could you please provide reported Inhibition for `C#CCNC(=O)c1cc2cc(OCCCC3CCN(Cc4ccccc4)CC3)ccc2[nH]1` ? Thanks!
4.92

Indicate its recorded Inhibition; the molecule in question is `C#CCN1CCc2nc3nc(N4CCCC4)c(C#N)cc3c(N)c2C1`
10.68

Note down Inhibition recorded for `O=Cc1c[nH]c2ccccc12`
22.42

Kindly indicate its recorded Inhibition. Item: `c1ccc(CNc2ncnc3c2cnn3-c2ccccc2)cc1`
-0.11

Provide only the value of recorded Inhibition for `N#Cc1cc(C#N)c(N2CCCC2)nc1N`
16.35

Quote Inhibition reported for N#CC1(Br)C(=NBr)Oc2ccc3ccccc3c2C1c1cccc([N+](=O)[O-])c1 (stereo not given) please.
8.04
